assayed system: EGFR Del19/T790M/C797S (Homo sapiens, UniProt P00533, C797S/DEL746-750/T790M)
Sequence (P00533 with tags, fused parts or gaps DEL746-750/T790M/C797S): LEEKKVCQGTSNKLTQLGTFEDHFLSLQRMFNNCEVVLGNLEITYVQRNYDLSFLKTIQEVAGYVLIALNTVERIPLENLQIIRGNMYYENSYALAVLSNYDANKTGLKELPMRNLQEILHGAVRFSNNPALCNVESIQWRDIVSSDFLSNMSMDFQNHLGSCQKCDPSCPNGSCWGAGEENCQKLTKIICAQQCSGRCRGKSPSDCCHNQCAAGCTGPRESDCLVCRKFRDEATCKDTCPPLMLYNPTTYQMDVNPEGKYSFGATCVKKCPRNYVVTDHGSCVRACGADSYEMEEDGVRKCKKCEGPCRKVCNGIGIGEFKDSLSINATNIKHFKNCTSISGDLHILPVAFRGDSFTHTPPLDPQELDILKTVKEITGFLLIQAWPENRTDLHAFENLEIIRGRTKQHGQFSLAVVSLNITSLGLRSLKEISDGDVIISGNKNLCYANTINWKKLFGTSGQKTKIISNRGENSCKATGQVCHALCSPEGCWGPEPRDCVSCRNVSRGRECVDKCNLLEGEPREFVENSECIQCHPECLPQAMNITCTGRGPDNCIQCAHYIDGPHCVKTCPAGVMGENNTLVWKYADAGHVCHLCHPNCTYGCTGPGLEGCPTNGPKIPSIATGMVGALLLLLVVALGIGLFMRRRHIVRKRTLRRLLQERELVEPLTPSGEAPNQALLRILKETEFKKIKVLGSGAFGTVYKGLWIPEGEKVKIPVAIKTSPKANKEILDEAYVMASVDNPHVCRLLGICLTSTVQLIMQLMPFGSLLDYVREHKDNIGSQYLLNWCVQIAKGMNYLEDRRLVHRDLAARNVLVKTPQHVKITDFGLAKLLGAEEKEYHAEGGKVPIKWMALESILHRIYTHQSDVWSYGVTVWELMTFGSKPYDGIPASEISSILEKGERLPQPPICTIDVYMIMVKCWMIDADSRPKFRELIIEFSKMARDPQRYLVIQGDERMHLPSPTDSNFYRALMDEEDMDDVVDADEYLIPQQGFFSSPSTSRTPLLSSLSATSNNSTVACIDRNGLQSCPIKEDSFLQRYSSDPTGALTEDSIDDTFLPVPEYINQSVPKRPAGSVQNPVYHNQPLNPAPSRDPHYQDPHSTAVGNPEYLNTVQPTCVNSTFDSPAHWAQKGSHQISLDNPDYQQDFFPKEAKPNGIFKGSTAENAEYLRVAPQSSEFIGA
assay explanation: Biochemical EGFR kinase inhibition assay (Lance Ultra TR-FRET), triple mutant del19/T790M/C797S
condition label: IC50 Del19/T790M/C797S (nM), 100 μM ATP
Recorded IC50 determines the label; the label ranges are lowest: < 1 nM; middle: ≥ 1 nM and < 4 nM; highest: ≥ 4 nM

Look over these answered cases.
| molecule | assigned label |
| --- | --- |
| O=S(=O)(C1CC1)n1cc(-c2nccc(Nc3cc(N4CCC5(CCO5)CC4)c(C#Cc4ncc(CN5CCOCC5)cn4)cn3)n2)cn1 | lowest |
| O=S(=O)(C1CC1)n1cc(-c2nccc(Nc3cc(N[C@H]4CCC[C@H](O)C4)c(C#Cc4cnn(C(F)(F)F)c4)cn3)n2)cn1 | middle |
| Cn1cc(C#Cc2cnc(Nc3ccnc(-c4cnn(S(=O)(=O)C5CC5)c4)n3)cc2N2CCC(=O)CC2)cn1 | highest |
| CC(=O)N1CCC(n2cc(C#Cc3cnc(Nc4ccnc(-c5cnn(S(=O)(=O)C6CC6)c5)n4)cc3N3CCCC(O)C3)cn2)CC1 (centres unmarked) | lowest |
| CC1(CO)CCN(c2cc(Nc3ccnc(-c4cnn(S(=O)(=O)C5CC5)c4)n3)ncc2C#Cc2cnn(C3CCOCC3)c2)CC1 | middle |

Using the reported IC50, which band applies to CC(C)(O)C1CCN(c2cc(Nc3ccnc(-c4cnn(S(=O)(=O)C5CC5)c4)n3)ncc2C#Cc2cnn(C(F)(F)F)c2)CC1 ?
highest

Class (by measured IC50) for O=S(=O)(C1CC1)n1cc(-c2nccc(Nc3cc(N[C@H]4CC[C@@H](O)CC4)c(C#CC4COC4)cn3)n2)cn1
lowest

Band assignment needed for Cn1cc(C#Cc2cnc(Nc3ccnc(-c4cnn(S(=O)(=O)C5CC5)c4)n3)cc2N2CCC(NS(C)(=O)=O)CC2)cn1 please.
middle

Bin? Cn1cc(C#Cc2cnc(Nc3ccnc(-c4cnn(S(=O)(=O)C5CC5)c4)n3)cc2NC2CCCC(F)C2)cn1 (centres unmarked)
highest

Which IC50 category applies to O=S(=O)(C1CC1)n1cc(-c2nccc(Nc3cc(N[C@H]4CC[C@@H](O)CC4)c(C#Cc4ccc(CN5CCOCC5)cc4)cn3)n2)cn1 here?
middle

Which class holds CN(C)C[C@@H]1CCCN(c2cc(Nc3ccnc(-c4cnn(S(=O)(=O)C5CC5)c4)n3)ncc2C#Cc2cnn(CCF)c2)C1 ?
lowest

Input CC1(CO)CCN(c2cc(Nc3ccnc(-c4cnn(S(=O)(=O)C5CC5)c4)n3)ncc2C#Cc2cc(C(F)(F)F)n[nH]2)CC1 ; output its category
highest

Could you place Cn1cc(C#Cc2cnc(Nc3ccnc(-c4cnn(S(=O)(=O)C5CC5)c4)n3)cc2N2CCC(O)CC2)c(C(F)(F)F)n1 in its proper category? Many thanks.
highest

Record CN(C)CC1(O)CCN(c2cc(Nc3ccnc(-c4cnn(S(=O)(=O)C5CC5)c4)n3)ncc2C#Cc2cnn(C(F)(F)F)c2)CC1 — which class?
highest

---

assayed system: EGFR L858R/C797S (Homo sapiens, UniProt P00533, C797S/L858R)
Sequence (P00533 25-1210 C797S/L858R): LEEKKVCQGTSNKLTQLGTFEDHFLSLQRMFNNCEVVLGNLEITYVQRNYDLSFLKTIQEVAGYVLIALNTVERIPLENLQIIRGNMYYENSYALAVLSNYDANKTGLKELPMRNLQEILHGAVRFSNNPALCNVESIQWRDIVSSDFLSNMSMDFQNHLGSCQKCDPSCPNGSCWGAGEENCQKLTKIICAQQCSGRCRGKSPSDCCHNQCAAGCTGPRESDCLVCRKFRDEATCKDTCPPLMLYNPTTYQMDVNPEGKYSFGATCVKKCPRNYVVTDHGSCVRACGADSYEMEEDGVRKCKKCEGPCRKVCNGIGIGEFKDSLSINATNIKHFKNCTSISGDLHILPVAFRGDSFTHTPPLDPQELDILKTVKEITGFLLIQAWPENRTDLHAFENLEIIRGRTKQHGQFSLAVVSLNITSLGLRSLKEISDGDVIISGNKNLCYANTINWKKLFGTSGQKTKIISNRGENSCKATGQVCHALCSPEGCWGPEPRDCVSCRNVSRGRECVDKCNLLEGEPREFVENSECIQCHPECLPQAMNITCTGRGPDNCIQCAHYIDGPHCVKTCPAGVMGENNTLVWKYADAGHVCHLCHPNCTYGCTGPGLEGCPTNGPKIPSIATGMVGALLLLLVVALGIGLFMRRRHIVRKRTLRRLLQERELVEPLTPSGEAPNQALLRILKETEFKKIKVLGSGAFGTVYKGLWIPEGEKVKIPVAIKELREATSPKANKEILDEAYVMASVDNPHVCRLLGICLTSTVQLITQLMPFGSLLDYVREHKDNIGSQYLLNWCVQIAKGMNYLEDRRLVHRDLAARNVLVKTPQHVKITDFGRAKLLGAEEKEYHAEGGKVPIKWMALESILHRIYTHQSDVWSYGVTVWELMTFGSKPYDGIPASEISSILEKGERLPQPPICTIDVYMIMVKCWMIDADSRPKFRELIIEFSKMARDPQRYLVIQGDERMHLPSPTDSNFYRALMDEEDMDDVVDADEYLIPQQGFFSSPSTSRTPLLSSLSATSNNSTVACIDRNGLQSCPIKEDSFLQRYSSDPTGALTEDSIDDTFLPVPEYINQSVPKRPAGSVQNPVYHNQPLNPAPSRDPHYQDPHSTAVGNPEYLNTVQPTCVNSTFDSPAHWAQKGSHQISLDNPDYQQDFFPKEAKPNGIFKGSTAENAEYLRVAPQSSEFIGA
assay explanation: Biochemical EGFR kinase inhibition assay (Lance Ultra TR-FRET), double mutant L858R/C797S
condition label: IC50 L858R/C797S (nM), 100 μM ATP
Where a name gives a salt, the structure may show the parent alone.
measurement label: IC50
The reply should consist of the numeric value with the unit placed after it.

// below: answered molecules
| molecule | result |
| --- | --- |
| CN(C)CC1(F)CCN(c2cc(Nc3ccnc(-c4cnn(S(=O)(=O)C5CC5)c4)n3)ncc2C#Cc2cnn(C)c2)CC1 [Example 293, formate] | 34.1 nM |
| O=S(=O)(C1CC1)n1cc(-c2nccc(Nc3cc(N4CC[C@@H](O)C4)c(C#Cc4cnn(CCF)c4)cn3)n2)cn1 | 96.9 nM |

Indicate the recorded IC50 value for this molecule: CN1CCn2ncc(C#Cc3cnc(Nc4ccnc(-c5cnn(S(=O)(=O)C6CC6)c5)n4)cc3N3CCC(C)(CO)CC3)c2C1
8.9 nM

In one line, give reported IC50 of the entry O=S(=O)(C1CC1)n1cc(-c2nccc(Nc3cc(NC4CCC(O)CC4)c(C#CC4CCOC4)cn3)n2)cn1 (stereo not shown) .
50.8 nM

Let me know recorded IC50 for CC(C)Nc1cc(Nc2ccnc(-c3cnn(S(=O)(=O)C4CC4)c3)n2)ncc1C#CCCCNC(=O)N1CCOCC1 , thanks.
120 nM

Report measured IC50; entry is CC1(CO)CCN(c2cc(Nc3ccnc(-c4cnn(S(=O)(=O)C5CC5)c4)n3)ncc2C#Cc2cnn(CC3CC3)c2)CC1
15.9 nM

Answer with the recorded IC50 for the molecule listed here: O=S(=O)(C1CC1)n1cc(-c2nccc(Nc3cc(N4CCC5(CCCO5)CC4)c(C#Cc4cccnc4)cn3)n2)cn1
39.2 nM

---

assayed system: EGFR Del19/T790M/C797S (Homo sapiens, UniProt P00533, C797S/DEL746-750/T790M)
assay explanation: Biochemical EGFR kinase inhibition assay (Lance Ultra TR-FRET), triple mutant del19/T790M/C797S
condition label: IC50 Del19/T790M/C797S (nM), 100 μM ATP
measurement label: IC50 (nM)
State the answer as a number, implicitly in nM.

Consider the following illustrative entries.
| smi | unit spec | IC50 |
| --- | --- | --- |
| CN(C)CC1(C)CCN(c2cc(Nc3ccnc(-c4cnn(S(=O)(=O)C5CC5)c4)n3)ncc2C#CC2(C)CC2)CC1 | nM | 0.9 |
| O=S(=O)(C1CC1)n1cc(-c2nccc(Nc3cc(N4CCC(F)(CO)CC4)c(C#Cc4cnn(C5CCOCC5)c4)cn3)n2)cn1 | nM | 1 |
| Cn1cc(C#Cc2cnc(Nc3ccnc(-c4cnn(S(=O)(=O)C5CC5)c4)n3)cc2N2CCC(F)(C(F)(F)F)CC2)cn1 | nM | 9 |

Shift focus to the following entry.
Could you please provide reported IC50 for CC1(CO)CCN(c2cc(Nc3ccnc(-c4cnn(S(=O)(=O)C5CC5)c4)n3)ncc2C#CC2CC2)CC1 ? Thanks!
0.7

---

Items are presented alongside their recorded IC50.
assayed system: EGFR L858R/C797S (Homo sapiens, UniProt P00533, C797S/L858R)
assay explanation: Biochemical EGFR kinase inhibition assay (Lance Ultra TR-FRET), double mutant L858R/C797S
condition label: IC50 L858R/C797S (nM), 100 μM ATP
Numbers only here, please. The scale is nM.

Worked set:
| smi | IC50 / nM |
| --- | --- |
| CC1(CO)CCN(c2cc(Nc3ccnc(-c4cnn(S(=O)(=O)C5CC5)c4)n3)ncc2C#Cc2cnn3c2CN(CC(F)F)CC3)CC1 | 57.8 |
| C=CC#Cc1cnc(Nc2ccnc(-c3cnn(S(=O)(=O)C4CC4)c3)n2)cc1N1CCC(C)(CO)CC1 | 33.7 |
| CC1(C#Cc2cnc(Nc3ccnc(-c4cnn(S(=O)(=O)C5CC5)c4)n3)cc2N2CCC(C)(CO)CC2)CCOCC1 | 400 |

Return value of IC50 for input O=S(=O)(C1CC1)n1cc(-c2nccc(Nc3cc(N[C@H]4CCC[C@H](O)C4)c(C#Cc4cnn(CCF)c4)cn3)n2)cn1 , no commentary.
12.7

---

assayed system: EGFR Del19/C797S (Homo sapiens, UniProt P00533, C797S/DEL746-750)
Sequence (P00533 with tags, fused parts or gaps DEL746-750/C797S): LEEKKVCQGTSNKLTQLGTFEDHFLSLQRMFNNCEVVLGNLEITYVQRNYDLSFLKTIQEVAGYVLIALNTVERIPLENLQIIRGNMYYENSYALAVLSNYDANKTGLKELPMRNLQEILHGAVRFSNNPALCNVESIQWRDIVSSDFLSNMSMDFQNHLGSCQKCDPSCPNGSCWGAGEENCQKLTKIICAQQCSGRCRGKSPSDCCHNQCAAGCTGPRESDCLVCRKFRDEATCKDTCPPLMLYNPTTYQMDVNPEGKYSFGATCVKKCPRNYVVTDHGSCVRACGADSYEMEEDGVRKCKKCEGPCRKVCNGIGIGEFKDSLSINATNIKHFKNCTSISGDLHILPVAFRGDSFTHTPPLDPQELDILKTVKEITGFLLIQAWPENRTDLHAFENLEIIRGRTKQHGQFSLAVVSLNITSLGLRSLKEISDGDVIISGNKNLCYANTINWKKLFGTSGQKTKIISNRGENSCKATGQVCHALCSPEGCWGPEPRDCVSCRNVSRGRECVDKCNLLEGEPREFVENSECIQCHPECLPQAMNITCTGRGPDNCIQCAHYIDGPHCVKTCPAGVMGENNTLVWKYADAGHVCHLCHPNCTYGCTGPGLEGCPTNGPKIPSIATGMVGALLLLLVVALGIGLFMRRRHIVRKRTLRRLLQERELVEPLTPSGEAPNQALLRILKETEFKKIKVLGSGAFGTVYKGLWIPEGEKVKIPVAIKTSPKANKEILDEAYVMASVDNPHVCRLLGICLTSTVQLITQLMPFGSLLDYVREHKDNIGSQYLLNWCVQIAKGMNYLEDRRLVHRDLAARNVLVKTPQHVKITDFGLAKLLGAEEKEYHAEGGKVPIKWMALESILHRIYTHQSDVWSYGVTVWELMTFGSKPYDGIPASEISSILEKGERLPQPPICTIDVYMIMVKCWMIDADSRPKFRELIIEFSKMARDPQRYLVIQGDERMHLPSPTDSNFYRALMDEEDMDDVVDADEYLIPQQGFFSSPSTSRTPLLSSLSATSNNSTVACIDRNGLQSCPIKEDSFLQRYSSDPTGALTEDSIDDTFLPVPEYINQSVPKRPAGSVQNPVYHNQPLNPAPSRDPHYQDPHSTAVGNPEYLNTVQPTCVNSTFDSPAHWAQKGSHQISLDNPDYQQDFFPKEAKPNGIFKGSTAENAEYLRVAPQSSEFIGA
assay explanation: Biochemical EGFR kinase inhibition assay (Lance Ultra TR-FRET), double mutant del19/C797S
condition label: IC50 Del19/C797S (nM), 100 μM ATP
measurement label: IC50 (nM)
Response body: numeric value in nM, unit text excluded.

Tell me IC50 reported for CC1(O)CCN(c2cc(Nc3ccnc(-c4cnn(S(=O)(=O)C5CC5)c4)n3)ncc2C#Cc2ccc(C(=O)N3CCC(O)CC3)cc2)CC1 [Example 442]
1.3

Identify IC50 associated with the compound O=S(=O)(C1CC1)n1cc(-c2nccc(Nc3cc(NC4CCC(O)CC4)c(C#CC4(F)CCOC4)cn3)n2)cn1 (stereo not drawn) [Example 436]
3.1

Find the measured IC50 of CNCC1(F)CCN(c2cc(Nc3ccnc(-c4cnn(S(=O)(=O)C5CC5)c4)n3)ncc2C#Cc2cnn(C)c2)CC1 [Example 382] and report it.
2.9

---

assayed system: EGFR Del19/C797S (Homo sapiens, UniProt P00533, C797S/DEL746-750)
assay explanation: Biochemical EGFR kinase inhibition assay (Lance Ultra TR-FRET), double mutant del19/C797S
condition label: IC50 Del19/C797S (nM), 100 μM ATP
Overview of reported IC50 across a group of compounds:
Just the number please, in nM, no unit attached.

| compound | assayed system | measurement label | numeric value |
| --- | --- | --- | --- |
| CN1CCN(C2CCN(c3cc(Nc4ccnc(-c5cnn(S(=O)(=O)C6CC6)c5)n4)ncc3C#Cc3ccsc3)CC2)CC1 | EGFR Del19/C797S (Homo sapiens, UniProt P00533, C797S/DEL746-750) | IC50 | 5.1 |
| Cn1cc(C#Cc2cnc(Nc3ccnc(-c4cnn(S(=O)(=O)C5CC5)c4)n3)cc2N2CCC(F)(CNCCF)CC2)cn1 | EGFR Del19/C797S (Homo sapiens, UniProt P00533, C797S/DEL746-750) | IC50 | 8.2 |

Okay, next one:
Provide one value: measured IC50 of O=S(=O)(C1CC1)n1cc(-c2nccc(Nc3cc(N4CCC(F)(CO)CC4)c(C#Cc4cnn(CC(F)(F)F)c4)cn3)n2)cn1
3.6
